Target: CDK2 (Homo sapiens)
Construct: host or cells: HEK293-CDK2-Hibit
Experiment: HiBit Assay Protocol for CDK2 (HIBIT protein quantification, degradation)
Type: cell-based
Conditions: HEK293-CDK2-Hibit cells, compound treatment for 6 hours, ABS DC50
Kindly state DC50 for each of the entries shown.
One number for each entry, in nM.

Check out these entries, answers already filled in.
compound	targetSystem	DC50 [nM]
CC1CN(Cc2cccc(S(=O)(=O)N3CCC(Nc4ncc5c(n4)N([C@@H]4CCC[C@@H](O)C4)C(=O)C54CC4)CC3)c2)CCC1c1ccc2c(N3CCC(=O)NC3=O)nn(C)c2c1 (stereo partly drawn) [Compound 182]	CDK2 (Homo sapiens)	4.8
C[C@@H](c1cccc(S(=O)(=O)N2CC[C@H](Nc3ncc4c(n3)N([C@@H]3CCC[C@@H](O)C3)C(=O)C43CC3)[C@H](F)C2)c1)N1CCN(c2ccc3c(N4CCC(=O)NC4=O)nn(C)c3c2)CC1 [Compound 197]	CDK2 (Homo sapiens)	10.5
CC1CCCC1N1C(=O)C2(CC2)c2cnc(NC3CCN(S(=O)(=O)N4CCC5(CCN(C(=O)CCCc6cccc7c6n(C)c(=O)n7C6CCC(=O)NC6=O)C5)C4)CC3)nc21 (stereo not drawn) [Compound 32]	CDK2 (Homo sapiens)	86
C[C@@H]1CN([C@@H](C)c2cccc(S(=O)(=O)N3CC[C@H](Nc4ncc5c(n4)N([C@@H]4CCC[C@@H](O)C4)C(=O)C54CC4)[C@H](F)C3)c2)CCN1c1ccc2c(N3CCC(=O)NC3=O)nn(C)c2c1 [Compound 209]	CDK2 (Homo sapiens)	12.7
O=C1CCC(N2Cc3cc(N4CCC(N5CC(Oc6cccc(S(=O)(=O)N7CCC(Nc8ncc9c(n8)N([C@@H]8CCC[C@@H](O)C8)C(=O)C98CC8)CC7)c6)C5)CC4)ccc3C2=O)C(=O)N1 (stereo partly drawn) [Compound 134]	CDK2 (Homo sapiens)	4.22
Cn1c(=O)n(C2CCC(=O)NC2=O)c2cccc(-c3ccc(Oc4cccc(S(=O)(=O)N5CCC(Nc6ncc7c(n6)N([C@@H]6CCC[C@@H](O)C6)C(=O)C76CC6)CC5)c4)cc3)c21 (stereo partly drawn) [Compound 150]	CDK2 (Homo sapiens)	12.9
CC(C)[C@H]1CN([C@@H](C)c2cccc(S(=O)(=O)N3CC[C@H](Nc4ncc5c(n4)N([C@@H]4CCC[C@@H](O)C4)C(=O)C54CC4)[C@H](F)C3)c2)CCN1c1ccc2c(N3CCC(=O)NC3=O)nn(C)c2c1 (single isomer, unassigned) [Compound 202]	CDK2 (Homo sapiens)	10.9
Cn1nc(N2CCC(=O)NC2=O)c2ccc(C3CCN(Cc4cccc(S(=O)(=O)N5CCC(Nc6ncc7c(n6)N([C@@H]6CCC[C@@H](O)C6)C(=O)C76CC6)CC5)c4)CC3(F)F)cc21 (stereo partly drawn) [Compound 177]	CDK2 (Homo sapiens)	6.51

Attention now shifts to the item below.
Please fill in: DC50 reported for Cn1nc(N2CCC(=O)NC2=O)c2cccc(C3CCN(Cc4cccc(S(=O)(=O)N5CCC(Nc6ncc7c(n6)N([C@H]6CCC[C@H](O)C6)C(=O)C76CC6)CC5)c4)CC3)c21 (stereo in doubt) [Compound 146] = 30

###

Target: CCNE1 (Homo sapiens, UniProt P24864+P24941)
Construct: host or cells: HEK293-CCNE1-Hibit
Sequence (P24864 whole entry, one chain of several): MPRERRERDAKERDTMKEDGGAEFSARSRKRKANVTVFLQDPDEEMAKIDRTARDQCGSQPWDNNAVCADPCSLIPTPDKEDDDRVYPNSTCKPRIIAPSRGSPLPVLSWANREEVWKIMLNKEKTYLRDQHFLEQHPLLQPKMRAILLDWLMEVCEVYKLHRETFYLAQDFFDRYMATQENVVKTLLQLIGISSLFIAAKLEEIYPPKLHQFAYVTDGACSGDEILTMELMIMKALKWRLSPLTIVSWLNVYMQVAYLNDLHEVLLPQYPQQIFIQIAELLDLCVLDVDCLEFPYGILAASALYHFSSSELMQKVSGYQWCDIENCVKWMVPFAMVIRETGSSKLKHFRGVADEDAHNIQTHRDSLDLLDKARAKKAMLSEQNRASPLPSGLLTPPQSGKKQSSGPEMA
Test: HiBit Assay Protocol for CCNE1 (HIBIT protein quantification, degradation)
Type: cell-based
Conditions: HEK293-CCNE1-Hibit cells, compound treatment for 6 hours, ABS DC50
Kindly state log10(DC50) for each of the entries shown.
The common logarithm of DC50 in nM is what is listed.

Check out these entries, answers already filled in.
molecule	log10(DC50)
C[C@@H](C1CC1)N1C(=O)C2(CC2)c2cnc(NC3CCN(S(=O)(=O)c4cccc(CN5CCC(c6ccc7c(N8CCC(=O)NC8=O)nn(C)c7c6)CC5)c4)CC3)nc21 [Compound 164]	0.79
CC1CN(Cc2cccc(S(=O)(=O)N3CCC(Nc4ncc5c(n4)N([C@@H]4CCC[C@@H](O)C4)C(=O)C54CC4)CC3)c2)CCC1c1ccc2c(N3CCC(=O)NC3=O)nn(C)c2c1 (some centres unmarked) [Compound 182]	0.91
O=C1CCC(N2Cc3cc(N4CCN(CC5CCN(c6cccc(S(=O)(=O)c7ccc(Nc8ncc9c(n8)N([C@@H]8CCC[C@@H](O)C8)C(=O)C98CC8)cc7)c6)CC5)CC4)ccc3C2=O)C(=O)N1 (some centres unmarked) [Compound 126]	1.47
O=C1CCC(N2Cc3cc(CN4CC(Oc5cccc(S(=O)(=O)c6ccc(Nc7ncc8c(n7)N([C@@H]7CCC[C@@H](O)C7)C(=O)C87CC7)cc6)c5)C4)ccc3C2=O)C(=O)N1 (some centres unmarked) [Compound 125]	0.37

Attention now shifts to the item below.
Please fill in: log10(DC50) reported for Cn1nc(N2CCC(=O)NC2=O)c2cccc(C3CCN(Cc4cccc(S(=O)(=O)N5CCC(Nc6ncc7c(n6)N([C@H]6CCC[C@H](O)C6)C(=O)C76CC6)CC5)c4)CC3)c21 (stereo in doubt) [Compound 146] = 1.56

###

Biological target: CDK2 (Homo sapiens)
Construct: host or cells: HEK293-CDK2-Hibit
Assay: HiBit Assay Protocol for CDK2 (HIBIT protein quantification, degradation)
Assay type: cell-based
Settings: HEK293-CDK2-Hibit cells, compound treatment for 6 hours
Kindly state CDK2 HIBIT Protein Quantification Maximum for each of the entries shown.
Give bare numbers, in %.

I need CDK2 HIBIT Protein Quantification Maximum for every entry listed below, if you could help.
1. O=C1CCC(N2Cc3cc(N4CCN(C5CN(c6cccc(S(=O)(=O)N7CCC(Nc8ncc9c(n8)N([C@H]8CCC[C@H](O)C8)C(=O)C98CC8)CC7)c6)C5)CC4)ccc3C2=O)C(=O)N1 (stereo in doubt) [Compound 133]
2. CC1CCCC1N1C(=O)C2(CC2)c2cnc(NC3CCN(S(=O)(=O)N4CC5(CCCN(C6CCN(c7cccc8c7n(C)c(=O)n8C7CCC(=O)NC7=O)CC6)C5)C4)CC3)nc21 (centres unmarked) [Compound 139]
3. Cc1ccc(CN2CCC(c3ccc4c(N5CCC(=O)NC5=O)nn(C)c4c3)CC2)cc1S(=O)(=O)N1CCC(Nc2ncc3c(n2)N([C@@H]2CCC[C@@H](O)C2)C(=O)C32CC2)CC1 [Compound 163]
4. CC(C)[C@@H]1CN([C@H](C)c2cccc(S(=O)(=O)N3CC[C@H](Nc4ncc5c(n4)N([C@@H]4CCC[C@@H](O)C4)C(=O)C54CC4)[C@H](F)C3)c2)CCN1c1ccc2c(N3CCC(=O)NC3=O)nn(C)c2c1 [Compound 204]

1: 61; 2: 65; 3: 26; 4: 85

Please fill in: CDK2 HIBIT Protein Quantification Maximum reported for CC1CCCC1N1C(=O)C2(CC2)c2cnc(NC3CCN(S(=O)(=O)N4CCCC45CCN(C(=O)CCCc4cccc6c4n(C)c(=O)n6C4CCC(=O)NC4=O)C5)CC3)nc21 (centres unmarked) [Compound 24] = 41

###

Biological target: CCNE1 (Homo sapiens)
Construct: host or cells: HEK293-CCNE1-Hibit
Assay: HiBit Assay Protocol for CCNE1 (HIBIT protein quantification, degradation)
Format: cell-based
Details: HEK293-CCNE1-Hibit cells, compound treatment for 6 hours
Procedure: HiBit Assay Protocol for CCNE1 • 1. The culture medium for HEK293-CCNE1-Hibit cell was prepared using EMEM with […]. • 2. Cells were cultivated in T-75 flasks in a cell culture incubator set at 37° C., 5% CO2, 95% relative humidity. […] Cells were harvested from flask into cell culture medium and then the cell number was counted. […] • 1. […] 20 μL of HiBit reagent was added into each well and the plates were spinned at room temperature at 1,000 RPM for 1 minute to be detected. […]
Returns 1.0 if the recorded CCNE1 HIBIT Protein Quantification Maximum is greater than or equal to 10%, and 0.0 otherwise.

// known answers, use as guide
compound	classification
Cn1c(=O)n(C2CCC(=O)NC2=O)c2ccc(-c3ccc(Oc4cccc(S(=O)(=O)N5CCC(Nc6ncc7c(n6)N([C@@H]6CCC[C@@H](O)C6)C(=O)C76CC6)CC5)c4)cc3)cc21 (stereo partly shown)	1.0
CN(CCCN1CCC(c2cccc3c2n(C)c(=O)n3C2CCC(=O)NC2=O)CC1)S(=O)(=O)N1CCC(Nc2ncc3c(n2)N([C@@H]2CCC[C@@H](O)C2)C(=O)C32CC2)CC1 (stereo partly shown)	1.0
CC1CCCC1N1C(=O)C2(CC2)c2cnc(NC3CCN(S(=O)(=O)N4CC5(CCN(C(=O)CCCCCCCc6ccc7c(c6)n(C)c(=O)n7C6CCC(=O)NC6=O)CC5)C4)CC3)nc21 (stereo not shown)	1.0
CC1CCCC1N1C(=O)C2(CC2)c2cnc(NC3CCN(S(=O)(=O)N4CC5(CCN(C(=O)CCCc6ccc7c(c6)n(C)c(=O)n7C6CCC(=O)NC6=O)CC5)C4)CC3)nc21 (stereo not shown)	0.0
CC1CCCC1N1C(=O)C2(CC2)c2cnc(NC3CCN(S(=O)(=O)N4CCC5(CCN(C(=O)CCCCCc6cccc7c6n(C)c(=O)n7C6CCC(=O)NC6=O)C5)C4)CC3)nc21 (stereo not shown)	1.0

Is CCNE1 HIBIT Protein Quantification Maximum for CC1CCCC1N1C(=O)C2(CC2)c2cnc(NC3CCN(S(=O)(=O)N4CC(N(C)C(=O)CCCCCCCCCc5cccc6c5n(C)c(=O)n6C5CCC(=O)NC5=O)C4)CC3)nc21 (stereo not shown) at or above 10%?
0.0

Is CCNE1 HIBIT Protein Quantification Maximum for CC(c1cc(S(=O)(=O)N2CC[C@H](Nc3ncc4c(n3)N([C@@H]3CCC[C@@H](O)C3)C(=O)C43CC3)[C@H](F)C2)ccc1F)N1CCC(c2ccc3c(N4CCC(=O)NC4=O)nn(C)c3c2)CC1 (single isomer, unassigned) [Compound 200] at or above 10%?
1.0

Is CCNE1 HIBIT Protein Quantification Maximum for CC1CCCC1N1C(=O)C2(CC2)c2cnc(NC3CCN(S(=O)(=O)N4CCCC45CCN(C(=O)CCCCc4ccc6c(c4)n(C)c(=O)n6C4CCC(=O)NC4=O)C5)CC3)nc21 (stereo not shown) at or above 10%?
0.0

Is CCNE1 HIBIT Protein Quantification Maximum for O=C1CCC(N2Cc3cc(N4CCN(C5CN(c6cccc(S(=O)(=O)N7CCC(Nc8ncc9c(n8)N([C@H]8CCC[C@H](O)C8)C(=O)C98CC8)CC7)c6)C5)CC4)ccc3C2=O)C(=O)N1 (stereo in doubt) at or above 10%?
1.0

Is CCNE1 HIBIT Protein Quantification Maximum for CC1CCCC1N1C(=O)C2(CC2)c2cnc(NC3CCN(S(=O)(=O)C4CCCN(C(=O)CCCCCc5ccc6c(c5)n(C)c(=O)n6C5CCC(=O)NC5=O)C4)CC3)nc21 (stereo not shown) at or above 10%?
1.0
